# System: Fasciola hepatica eggs (ABZ-susceptible isolate)
# METHOD_DESCRIPTION: Egg hatch test (EHT), ABZ-susceptible isolates
# Format: cell-based
# CONDITION_CONTEXT: 50 µM; ABZ-susceptible isolate; mean ± SEM
Returns: string. Value is Satisfied if measured % Ovicidal activity is below 4%, and Not satisfied if it is greater than or equal to it.

Worked set:
{"CHEMICAL_STRING": "COc1ccc(C(=O)Nc2nc3cc(Cl)ccc3[nH]2)cc1", "CLASS_LABEL": "Not satisfied"}
{"CHEMICAL_STRING": "Cc1ccc2[nH]c(-c3ccc(Cl)cc3)nc2c1", "CLASS_LABEL": "Not satisfied"}
{"CHEMICAL_STRING": "COc1ccc(CNc2nc3cc(C)ccc3[nH]2)c(OC)c1OC", "CLASS_LABEL": "Satisfied"}
{"CHEMICAL_STRING": "COc1ccc2nc(-c3ccc(Br)cc3)[nH]c2c1", "CLASS_LABEL": "Not satisfied"}
{"CHEMICAL_STRING": "COc1ccc(-c2nc3cc(NC(=O)c4ccccn4)ccc3[nH]2)cc1", "CLASS_LABEL": "Not satisfied"}
{"CHEMICAL_STRING": "COc1ccc(C(=O)Nc2nc3cc(C)ccc3[nH]2)cc1", "CLASS_LABEL": "Not satisfied"}
{"CHEMICAL_STRING": "Clc1ccc(-c2nc3cc(Cl)ccc3[nH]2)cc1", "CLASS_LABEL": "Not satisfied"}
{"CHEMICAL_STRING": "Cc1ccc2[nH]c(NS(=O)(=O)c3ccc4ccccc4c3)nc2c1", "CLASS_LABEL": "Satisfied"}

Query: Item `COc1ccc(-c2nc3cc(Cl)ccc3[nH]2)cc1` : % Ovicidal activity beneath 4%, strictly?
Result: Not satisfied

Query: Just wondering, is % Ovicidal activity of `COc1ccc(CNc2nc3cc(OC)ccc3[nH]2)cc1` below 4%?
Result: Not satisfied

Query: Hello, is % Ovicidal activity of the following compound strictly smaller than 4%? `O=C(Nc1nc2cc(Cl)ccc2[nH]1)c1ccccc1`
Result: Not satisfied

Query: Confirm or reject: % Ovicidal activity of `COc1cc(CNc2nc3cc(Cl)ccc3[nH]2)cc(OC)c1OC` lies strictly below 4%
Result: Satisfied

Query: Does this compound meet the criterion % Ovicidal activity < 4%? `COc1ccc(-c2nc3cc(C)ccc3[nH]2)cc1`
Result: Not satisfied

Query: Here's an entry: `COc1ccc(-c2nc3cc(Cl)ccc3[nH]2)cc1N` . Is its % Ovicidal activity below 4%?
Result: Not satisfied

Query: Please indicate whether the reported % Ovicidal activity of `COc1ccc(-c2nc3cc(Cl)ccc3[nH]2)cc1[N+](=O)[O-]` is strictly below 4%.
Result: Satisfied

Query: Given `COc1ccc2[nH]c(-c3ccc(Cl)cc3)nc2c1` , is recorded % Ovicidal activity strictly lower than 4%?
Result: Not satisfied

Query: Bench note: check whether `COc1ccc2[nH]c(NC(=O)c3ccccn3)nc2c1` shows % Ovicidal activity below 4%
Result: Not satisfied

Query: Strictly below 4%: is that where % Ovicidal activity of `COc1ccc(-c2nc3cc([N+](=O)[O-])ccc3[nH]2)cc1[N+](=O)[O-]` sits?
Result: Satisfied

Query: hey, is % Ovicidal activity for `O=C(Nc1nc2cc(Cl)c(Cl)cc2[nH]1)c1ccccc1` lower than 4% or not?
Result: Satisfied

Query: Quick check: does `Cc1ccc(C)c(-c2nc3cc(Cl)ccc3[nH]2)c1` have % Ovicidal activity under 4%?
Result: Satisfied

Query: Find out if reported % Ovicidal activity for `COc1ccc2[nH]c(NC(=O)c3ccccc3)nc2c1` is less than 4%
Result: Not satisfied

Query: Is 4% strictly greater than the compound's reported % Ovicidal activity? compound: `Cc1ccc2[nH]c(NC(=O)Cc3ccc4ccccc4c3)nc2c1`
Result: Satisfied

Query: Is % Ovicidal activity strictly under 4% for the entry `O=[N+]([O-])c1ccc(-c2nc3cc(Cl)ccc3[nH]2)cc1` ?
Result: Not satisfied

Query: Strictly below 4%: is that where % Ovicidal activity of `COc1ccc(-c2nc3cc(C)ccc3[nH]2)cc1[N+](=O)[O-]` sits?
Result: Not satisfied

###

# System: Fasciola hepatica eggs (ABZ-susceptible isolate)
# METHOD_DESCRIPTION: Egg hatch test (EHT), ABZ-susceptible isolates
# Format: cell-based
# CONDITION_CONTEXT: 50 µM; ABZ-susceptible isolate; mean ± SEM
Record 1 (yes) whenever % Ovicidal activity is at 20% or higher; record 0 (no) when lower.

{"CHEMICAL_STRING": "COc1ccc(-c2nc3cc([N+](=O)[O-])ccc3[nH]2)cc1", "TEST_TARGET": "Fasciola hepatica eggs (ABZ-susceptible isolate)", "CLASS_LABEL": "0 (no)"}
{"CHEMICAL_STRING": "COc1ccc(-c2nc3cc(N)ccc3[nH]2)cc1", "TEST_TARGET": "Fasciola hepatica eggs (ABZ-susceptible isolate)", "CLASS_LABEL": "0 (no)"}
{"CHEMICAL_STRING": "COc1ccc(CNc2nc3cc(Cl)ccc3[nH]2)cc1", "TEST_TARGET": "Fasciola hepatica eggs (ABZ-susceptible isolate)", "CLASS_LABEL": "0 (no)"}
{"CHEMICAL_STRING": "Clc1ccc2[nH]c(NCc3ccccc3)nc2c1", "TEST_TARGET": "Fasciola hepatica eggs (ABZ-susceptible isolate)", "CLASS_LABEL": "1 (yes)"}
{"CHEMICAL_STRING": "Cc1ccc2[nH]c(NC(=O)c3ccccn3)nc2c1", "TEST_TARGET": "Fasciola hepatica eggs (ABZ-susceptible isolate)", "CLASS_LABEL": "1 (yes)"}
{"CHEMICAL_STRING": "Clc1ccc2[nH]c(NCc3ccco3)nc2c1", "TEST_TARGET": "Fasciola hepatica eggs (ABZ-susceptible isolate)", "CLASS_LABEL": "1 (yes)"}
{"CHEMICAL_STRING": "COc1ccc(C(=O)Nc2nc3cc(C)c(C)cc3[nH]2)cc1", "TEST_TARGET": "Fasciola hepatica eggs (ABZ-susceptible isolate)", "CLASS_LABEL": "0 (no)"}
{"CHEMICAL_STRING": "COc1cc(C(=O)Nc2nc3cc(C)ccc3[nH]2)cc(OC)c1OC", "TEST_TARGET": "Fasciola hepatica eggs (ABZ-susceptible isolate)", "CLASS_LABEL": "0 (no)"}

Query: Textbook exercise: given the entry `COc1ccc(CNc2nc3cc(C)c(C)cc3[nH]2)cc1` , state whether its % Ovicidal activity is greater than or equal to 20%.
Result: 0 (no)

Query: Would you say `Clc1ccc(-c2nc3ccccc3[nH]2)cc1` shows % Ovicidal activity at minimum 20%?
Result: 0 (no)

Query: Record `COc1cc(OC)cc(C(=O)Nc2nc3cc(C)ccc3[nH]2)c1` ; criterion: % Ovicidal activity no lower than 20%. Met?
Result: 0 (no)

Query: Entry `Cc1ccc2[nH]c(NCc3ccco3)nc2c1` : is its % Ovicidal activity no less than 20%?
Result: 1 (yes)

Query: hey, is % Ovicidal activity for this one >= 20%? `Cc1ccc2[nH]c(NC(=O)c3cc([N+](=O)[O-])ccc3Cl)nc2c1`
Result: 0 (no)

Query: Is the recorded value of % Ovicidal activity equal to or greater than 20% for this molecule? `Clc1cc2nc(NCc3ccccc3)[nH]c2cc1Cl`
Result: 1 (yes)

Query: Reported % Ovicidal activity at or above 20%? `Cc1ccc(C)c(-c2nc3cc([N+](=O)[O-])ccc3[nH]2)c1`
Result: 0 (no)

Query: Threshold query (% Ovicidal activity >= 20%) on `Cc1ccc2[nH]c(NCc3cccs3)nc2c1`
Result: 1 (yes)

Query: # bool: % Ovicidal activity of `Cc1cc2nc(NC(=O)c3cccc(Cl)c3)[nH]c2cc1C` >= 20%
Result: 0 (no)

###

# Test system: murine intestinal organoids
# METHOD_DESCRIPTION: Intestinal tolerability assay on murine intestinal organoids
# Format: cell-based, mouse
# CONDITION_CONTEXT: 25 µM
Exercise: for every item that follows, state its recorded % Viability in organoids.
Answer format: value, then unit.

{"CHEMICAL_STRING": "Cc1ccc2[nH]c(NC(=O)c3ccccn3)nc2c1", "% Viability in organoids": "98.60%"}
{"CHEMICAL_STRING": "COc1ccc(-c2nc3cc(Cl)ccc3[nH]2)cc1", "% Viability in organoids": "69.30%"}
{"CHEMICAL_STRING": "COc1ccc2[nH]c(NCc3ccc(N4CCCC4)cc3)nc2c1", "% Viability in organoids": "81.10%"}
{"CHEMICAL_STRING": "Clc1ccc2[nH]c(NCc3ccccc3)nc2c1", "% Viability in organoids": "48.10%"}

Okay, now this compound:
Query: Give the reported value of % Viability in organoids for this record: `O=C(Nc1nc2cc(Cl)ccc2[nH]1)c1ccccn1`
Result: 100%
